# target-system: DRB1*0802 (Homo sapiens, UniProt P01903+P01911, A100R/A103L/A169T/F76Y/H45Y/I96F/K41T/L162R/M171V/P40S/Q125H/Q178H/Q39Y/Q99D/R218S/R42G/S66Y/V115G/W38E)
# experiment: biochemical
# Type: binding
pIC50: −log10 of the molar value. Where no end group is shown, it is not given here.
quantity-measured: pIC50

| sequence-string | result-value |
| --- | --- |
| EGKVVQYENLKYTVI [Envelope 126-140] | 7.43 |

----------
# target-system: DRB5*0101 (Homo sapiens, UniProt P01903+Q30154)
# experiment: biochemical
This section presents molecules with their documented IC50 values.
quantity-measured: IC50

| molecule | result-value |
| --- | --- |
| CC(C)C[C@H](NC(=O)[C@H](CCCCN)NC(=O)[C@@H](NC(=O)[C@H](CCCCN)NC(=O)[C@H](CCC(N)=O)NC(=O)[C@H](Cc1ccc(O)cc1)NC(=O)[C@H](CCC(=O)O)NC(=O)[C@@H](NC(=O)[C@H](CC(=O)O)NC(=O)[C@H](Cc1ccccc1)NC(=O)[C@@H](NC(=O)[C@@H](N)CCCCN)[C@@H](C)O)[C@@H](C)O)[C@@H](C)O)C(=O)N[C@@H](CC(N)=O)C(=O)N[C@@H](CC(=O)O)C(=O)N[C@@H](Cc1c[nH]c2ccccc12)C(=O)O [NS3 389-403] | 2.33 µM |
| CC(C)C[C@H](NC(=O)[C@H](C)NC(=O)[C@H](CC(C)C)NC(=O)[C@@H]1CCCN1)C(=O)N[C@@H](CCCCN)C(=O)N[C@@H](CCC(=O)O)C(=O)N[C@@H](Cc1ccccc1)C(=O)N[C@@H](CCCCN)C(=O)N[C@@H](CC(=O)O)C(=O)N[C@@H](Cc1ccccc1)C(=O)N[C@@H](C)C(=O)N[C@@H](C)C(=O)NCC(=O)N[C@@H](CCCNC(=N)N)C(=O)N[C@@H](CCCCN)C(=O)O [NS3 605-619] | 0.02 µM |

----------
This section presents compounds with their documented IC50 values.
# target-system: DRB4*0101 (Homo sapiens, UniProt P01903+P13762, G164S)
# experiment: biochemical

| compound | IC50 |
| --- | --- |
| CC[C@H](C)[C@H](NC(=O)[C@@H](N)CCCCN)C(=O)N1CCC[C@H]1C(=O)NCC(=O)NCC(=O)N[C@@H](C)C(=O)N[C@@H](CCSC)C(=O)N[C@@H](Cc1ccc(O)cc1)C(=O)N[C@@H](C)C(=O)N[C@@H](CC(=O)O)C(=O)N[C@@H](CC(=O)O)C(=O)N[C@H](C(=O)N[C@@H](C)C(=O)NCC(=O)N[C@@H](Cc1c[nH]c2ccccc12)C(=O)N[C@@H](CC(=O)O)C(=O)N[C@H](C(=O)O)[C@@H](C)O)[C@@H](C)O [NS5 523-539] | 445 nM |
| CC[C@H](C)[C@H](NC(=O)[C@@H](NC(=O)[C@H](CCCCN)NC(=O)[C@H](CCCCN)NC(=O)CNC(=O)[C@H](CC(N)=O)NC(=O)[C@H](CCCCN)NC(=O)[C@H](CCCNC(=N)N)NC(=O)[C@H](CC(C)C)NC(=O)[C@H](CS)NC(=O)[C@H](CC(N)=O)NC(=O)[C@H](C)N)C(C)C)C(=O)N[C@@H](CCC(N)=O)C(=O)N[C@@H](CC(C)C)C(=O)N[C@@H](CO)C(=O)O [NS3 373-387] | 1630 nM |
| CC(C)[C@H](NC(=O)[C@@H]1CCCN1C(=O)[C@@H](NC(=O)[C@H](C)NC(=O)[C@H](CO)NC(=O)[C@@H](N)CS)C(C)C)C(=O)N[C@@H](Cc1c[nH]cn1)C(=O)N[C@@H](Cc1c[nH]c2ccccc12)C(=O)N[C@H](C(=O)N1CCC[C@H]1C(=O)N[C@H](C(=O)N[C@@H](CO)C(=O)N[C@@H](CCCNC(=N)N)C(=O)N[C@H](C(=O)N[C@H](C(=O)N[C@@H](Cc1c[nH]c2ccccc12)C(=O)O)[C@@H](C)O)[C@@H](C)O)[C@@H](C)O)C(C)C [NS5 780-795] | 168 nM |

----------
This section presents compounds with their documented pIC50 values.
# target-system: DRB3*0101 (Homo sapiens, UniProt P01903+P79483)
# experiment: biochemical
pIC50: −log10 of the molar value.
quantity-measured: pIC50

| compound | quantity-measured | result-value |
| --- | --- | --- |
| CC(C)C[C@H](NC(=O)[C@H](CCCNC(=N)N)NC(=O)[C@H](CCCCN)NC(=O)[C@@H]1CCCN1C(=O)[C@H](CO)NC(=O)[C@H](CC(=O)O)NC(=O)[C@H](C)NC(=O)[C@H](CCC(N)=O)NC(=O)[C@H](Cc1ccccc1)NC(=O)[C@H](CCCCN)NC(=O)[C@H](Cc1ccc(O)cc1)NC(=O)[C@H](CCC(N)=O)NC(=O)[C@H](CCC(=O)O)NC(=O)[C@@H](N)[C@@H](C)O)C(=O)N[C@@H](C)C(=O)O [NS1 29-43] | pIC50 | 7.96 |
| CSCC[C@H](NC(=O)[C@@H](NC(=O)[C@H](Cc1ccccc1)NC(=O)[C@H](CCCNC(=N)N)NC(=O)[C@H](CC(N)=O)NC(=O)[C@H](CC(C)C)NC(=O)[C@H](CC(C)C)NC(=O)[C@H](CC(C)C)NC(=O)[C@H](CCCNC(=N)N)NC(=O)[C@H](CO)NC(=O)[C@@H](NC(=O)[C@@H](N)CCSC)C(C)C)[C@@H](C)O)C(=O)N[C@H](C(=O)N[C@@H](Cc1c[nH]cn1)C(=O)N[C@@H](CCCNC(=N)N)C(=O)N[C@@H](CCCNC(=N)N)C(=O)O)[C@@H](C)O [NS5 233-248] | pIC50 | 5.65 |
| CC[C@H](C)[C@H](NC(=O)[C@H](C)NC(=O)[C@H](CC(N)=O)NC(=O)[C@H](C)N)C(=O)N[C@@H](Cc1ccccc1)C(=O)N[C@@H](CCCCN)C(=O)N[C@@H](CC(C)C)C(=O)N[C@H](C(=O)N[C@@H](Cc1ccc(O)cc1)C(=O)N[C@@H](CCC(N)=O)C(=O)N[C@@H](CC(N)=O)C(=O)N[C@@H](CCCCN)C(=O)N[C@H](C(=O)N[C@H](C(=O)N[C@@H](CCCCN)C(=O)N[C@H](C(=O)N[C@@H](CCC(N)=O)C(=O)O)C(C)C)C(C)C)C(C)C)[C@@H](C)O [NS5 564-580] | pIC50 | 6.24 |
| CC[C@H](C)[C@H](NC(=O)[C@@H]1CCCN1C(=O)[C@H](CCCCN)NC(=O)[C@@H](NC(=O)[C@@H](NC(=O)[C@H](CS)NC(=O)[C@@H](N)CC(=O)O)C(C)C)C(C)C)C(=O)N[C@@H](CC(=O)O)C(=O)N[C@@H](CC(=O)O)C(=O)N[C@@H](CCCNC(=N)N)C(=O)N[C@@H](Cc1ccccc1)C(=O)N[C@@H](C)C(=O)N[C@@H](CC(N)=O)C(=O)N[C@@H](C)C(=O)N[C@@H](CC(C)C)C(=O)N[C@@H](CC(C)C)C(=O)N[C@@H](C)C(=O)O [NS5 664-680] | pIC50 | 5.39 |
| CC[C@H](C)[C@H](NC(=O)[C@H](CC(C)C)NC(=O)[C@H](CCCCN)NC(=O)CN)C(=O)N[C@@H](Cc1c[nH]cn1)C(=O)N[C@@H](CCC(=O)O)C(=O)N[C@@H](Cc1c[nH]c2ccccc12)C(=O)N[C@@H](CS)C(=O)N[C@@H](CS)C(=O)N[C@@H](CCCNC(=N)N)C(=O)N[C@@H](CO)C(=O)N[C@@H](CS)C(=O)N[C@H](C(=O)N[C@@H](CC(C)C)C(=O)N1CCC[C@H]1C(=O)O)[C@@H](C)O [NS1 305-319] | pIC50 | 5.91 |

----------
# target-system: DRB5*0101 (Homo sapiens, UniProt P01903+Q30154)
# experiment: biochemical
pIC50: −log10 of the molar value.

| molecule | pIC50 |
| --- | --- |
| CC(C)C[C@H](NC(=O)[C@H](CCCNC(=N)N)NC(=O)[C@H](CCCCN)NC(=O)CNC(=O)[C@@H](N)CC(N)=O)C(=O)N[C@@H](CCC(=O)O)C(=O)N1CCC[C@H]1C(=O)N[C@@H](CC(N)=O)C(=O)N[C@@H](Cc1c[nH]c2ccccc12)C(=O)N[C@@H](C)C(=O)N[C@@H](CO)C(=O)N[C@H](C(=O)N[C@@H](CCCCN)C(=O)N[C@@H](CCCCN)C(=O)N[C@@H](CC(=O)O)C(=O)O)C(C)C [NS3 61-75] | 6.84 |
| CC[C@H](C)[C@H](NC(=O)[C@@H](NC(=O)[C@@H]1CCCN1C(=O)[C@@H](N)CO)[C@@H](C)CC)C(=O)N[C@@H](CC(N)=O)C(=O)N[C@@H](CCCNC(=N)N)C(=O)N[C@@H](CCC(=O)O)C(=O)NCC(=O)N[C@@H](CCCCN)C(=O)N[C@H](C(=O)N[C@H](C(=O)NCC(=O)N[C@@H](CC(C)C)C(=O)N[C@@H](Cc1ccc(O)cc1)C(=O)NCC(=O)O)C(C)C)C(C)C [NS3 137-151] | 5.77 |
| CC[C@H](C)[C@H](NC(=O)[C@H](CC(=O)O)NC(=O)CNC(=O)[C@@H](NC(=O)[C@@H](NC(=O)[C@@H](NC(=O)[C@@H](NC(=O)[C@H](CC(C)C)NC(=O)[C@@H](N)CCCCN)[C@@H](C)O)C(C)C)C(C)C)C(C)C)C(=O)N[C@H](C(=O)NCC(=O)N[C@H](C(=O)N[C@@H](CC(C)C)C(=O)N[C@@H](CCC(=O)O)C(=O)N[C@@H](CCC(N)=O)C(=O)O)C(C)C)[C@@H](C)CC [NS1 85-99] | 7.11 |
